- Test system: HT-29
- ASSAY COMMENT: Cytotoxicity against human HT29 cells assessed as reduction in cell density compound treated for 4 hrs under hypoxic condition measured after 5 days by sulforhodamine B assay
- Format: functional, cell-based
// values below are reported IC50
The response must be a number in nM with no trailing unit.

- O=C(/C=C/c1ccc(OCCN2CCOCC2)cc1)N1CC(CBr)c2c1cc([N+](=O)[O-])c1cc(S(=O)(=O)NCCO)ccc21 (stereo unspecified): 80
- O=C(c1cc2cc(OCCN3CCOCC3)ccc2[nH]1)N1CC(CBr)c2c1cc([N+](=O)[O-])c1cc(S(=O)(=O)NCCO)ccc21 (stereo unspecified): 440
- COc1cc2cc(C(=O)N3CC(CCl)c4c3cc([N+](=O)[O-])c3cc(S(=O)(=O)NCCO)ccc43)[nH]c2c(OC)c1OC (stereo unspecified): 11000

IC50 reported for this molecule COc1cc2cc(C(=O)N3CC(CBr)c4c3cc([N+](=O)[O-])c3cc(S(=O)(=O)NCCO)ccc43)[nH]c2c(OC)c1OC (stereo unspecified) : 1350

Quick note, IC50 for CN(C)CCOc1ccc2[nH]c(C(=O)N3CC(CCl)c4c3cc([N+](=O)[O-])c3cc(S(=O)(=O)NCCO)ccc43)cc2c1 (stereo unspecified) landed at 90

----------
- Test system: HT-29
- ASSAY COMMENT: Ratio IC50 for human HT29 cells under oxic condition to IC50 for human HT29 cells under hypoxic condition
- Type: functional
# Ratio IC50 per entry
Answer as a number with no unit attached.

Sample answers from the record:
- O=C(/C=C/c1ccc(OCCN2CCOCC2)cc1)N1CC(CBr)c2c1cc([N+](=O)[O-])c1cc(S(=O)(=O)NCCO)ccc21 (stereo unspecified): 286
- COc1cc2cc(C(=O)N3CC(CBr)c4c3cc([N+](=O)[O-])c3cc(S(=O)(=O)NCCO)ccc43)[nH]c2c(OC)c1OC (stereo unspecified): 10
- O=C(c1cc2cc(OCCN3CCOCC3)ccc2[nH]1)N1CC(CBr)c2c1cc([N+](=O)[O-])c1cc(S(=O)(=O)NCCO)ccc21 (stereo unspecified): 52

Tested on HT-29, the item CN(C)CCOc1ccc2[nH]c(C(=O)N3CC(CCl)c4c3cc([N+](=O)[O-])c3cc(S(=O)(=O)NCCO)ccc43)cc2c1 (stereo unspecified) showed Ratio IC50 equal to 160

// molecule COc1cc2cc(C(=O)N3CC(CCl)c4c3cc([N+](=O)[O-])c3cc(S(=O)(=O)NCCO)ccc43)[nH]c2c(OC)c1OC (stereo unspecified) , assay HT-29, Ratio IC50 value: 2.1

----------
- ASSAY COMMENT: Aqueous solubility of the compound
- Format: physicochemical
RECORDED METRIC: solubility

// field: solubility; key: CN(C)CCOc1ccc2[nH]c(C(=O)N3CC(CCl)c4c3cc([N+](=O)[O-])c3cc(S(=O)(=O)NCCOP(=O)(O)O)ccc43)cc2c1 (stereo unspecified) ; value = > 2000 µM

----------
- System: SiHa
- ASSAY COMMENT: Antitumor activity against human SiHa cells xenografted in CD1-Foxn1nu/nu nude mouse assessed as log10 clonogens/g tumor at 42 umol/kg, iv administered 5 mins after irradiated with gamma-15 Gy measured after 18 hrs (reference value: 5.34 +/- 0.04 to 5.73 +/- 0.15 no unit)
- Assay type: functional
RECORDED METRIC: Activity

A selection of reference data follows.
- COc1cc2cc(C(=O)N3CC(CBr)c4c3cc([N+](=O)[O-])c3cc(S(=O)(=O)NCCOP(=O)(O)O)ccc43)[nH]c2c(OC)c1OC (stereo not given): 3.62
- O=C(c1cc2cc(OCCN3CCOCC3)ccc2[nH]1)N1CC(CBr)c2c1cc([N+](=O)[O-])c1cc(S(=O)(=O)NCCOP(=O)(O)O)ccc21 (stereo not given): 2.6
- CN(C)CCOc1ccc2[nH]c(C(=O)N3CC(CCl)c4c3cc([N+](=O)[O-])c3cc(S(=O)(=O)NCCOP(=O)(O)O)ccc43)cc2c1 (stereo not given): 3.9
- COc1cc2cc(C(=O)N3CC(CCl)c4c3cc([N+](=O)[O-])c3cc(S(=O)(=O)NCCOP(=O)(O)O)ccc43)[nH]c2c(OC)c1OC (stereo not given): 4.96

Documented Activity of COc1ccc(/C=C/C(=O)N2CC(CBr)c3c2cc([N+](=O)[O-])c2cc(S(=O)(=O)NCCOP(=O)(O)O)ccc32)cc1 (stereo not given) : 4.5

Cited source for all entries: ChEMBL document CHEMBL1833894
